# measurement_notes: qHTS Assay for Lipid Storage Modulators (AID 1519)
# condition_label: Drosophila S3 cells, BODIPY lipid droplet/cell ratio, laser cytometry; measured here: cell count channel max response; cells loaded with oleic acid
Records with an inconclusive call do not appear.
For each of the compounds below, state its max response.
Answers are plain numbers, in %.

Solved cases below.
[[record]]
compound = "CC1(C)S[C@@H]2[C@H](NC(=O)C3(N)CCCCC3)C(=O)N2[C@H]1C(=O)O"
measurement = 10.5

[[record]]
compound = "CCCOc1cc(N)ccc1C(=O)OCCN(CC)CC"
measurement = -10.4

[[record]]
compound = "Nc1ncnc2c1ncn2[C@H]1CC[C@@H](CO)O1"
measurement = 3.29

[[record]]
compound = "CCCc1nc(C(C)(C)O)c(C(=O)OCc2oc(=O)oc2C)n1Cc1ccc(-c2ccccc2-c2nn[nH]n2)cc1"
measurement = 19.2

[[record]]
compound = "CC1CCCC(C)N1NC(=O)c1ccc(Cl)c(S(N)(=O)=O)c1 (stereo not drawn)"
measurement = 17.3


# per-item lookup of max response; items listed below
1. C=CC(C)(O)CC/C=C(\C)CCC=C(C)C (stereo not drawn)
2. CC[C@H]1OC(=O)[C@H](C)[C@@H](O[C@H]2C[C@@](C)(OC)[C@@H](O)[C@H](C)O2)C(C)[C@@H](O[C@@H]2O[C@H](C)C[C@H](N(C)C)[C@@H]2O)[C@](C)(OC)C[C@@H](C)C(=O)[C@H](C)[C@@H](O)[C@]1(C)O (stereo partly drawn)
3. O=C(O)CCC(=O)c1ccc(-c2ccccc2)cc1

5.67
9.53
-6.39

###

# Tested on: AA1029
# measurement_notes: qHTS profiling for inhibitors of Plasmodium falciparum proliferation (AID 504749); also: nearly all actives have a fitted effect of over 60% in size
# condition_label: P. falciparum in erythrocytes, SYBR Green DNA, 72 h; series mostly up to 28.7 µM
# Experimental: NIH National Institute of Allergy and Infectious Diseases [NIAID] NIH Chemical Genomics Center [NCGC] […] Because mature erythrocytes lack DNA, only Plasmodium-derived DNA is detected. NCGC Assay Protocol Summary: The SYBR Green viability assay was adapted from a method described previously (Plouffe et al., 2008). […] The following morning, fluorescence intensity at 485(14) nm excitation and 535(25) nm emission wavelengths was measured on an EnVision (Perkin Elmer) plate reader. […]
Records with an inconclusive call do not appear. The source made the active and inactive calls. The call rests on the fitted dose curve; in most records, active means well fitted inhibition curve with a large enough effect; inconclusive means small, poorly fitted or top-dose-only effect; inactive means flat fitted curve, though single readings scatter.
readout_kind: outcome

[[record]]
compound_smiles = "CCN(CC)CCOc1ccc2nc(N(C)C)sc2c1"
measurement = "inactive"

[[record]]
compound_smiles = "O=C(O)Cc1nn(Cc2ccc(Br)cc2F)c(=O)c2ccccc12"
measurement = "inactive"

[[record]]
compound_smiles = "OCCCNc1ccccc1"
measurement = "inactive"


###

# Tested on: DIV30
# measurement_notes: qHTS profiling for inhibitors of Plasmodium falciparum proliferation (AID 504749); also: nearly all actives have a fitted effect of over 60% in size; also: potency is read from the fitted curve at half-maximal effect
# condition_label: P. falciparum in erythrocytes, SYBR Green DNA, 72 h; series mostly up to 28.7 µM
# Description: NIH National Institute of Allergy and Infectious Diseases [NIAID] NIH Chemical Genomics Center [NCGC] […] Because mature erythrocytes lack DNA, only Plasmodium-derived DNA is detected. NCGC Assay Protocol Summary: The SYBR Green viability assay was adapted from a method described previously (Plouffe et al., 2008). […] The following morning, fluorescence intensity at 485(14) nm excitation and 535(25) nm emission wavelengths was measured on an EnVision (Perkin Elmer) plate reader. […]
Results filed as inconclusive are left out. Activity calls are given as the source filed them. The call rests on the fitted dose curve; in most records, active means well fitted inhibition curve with a large enough effect; inconclusive means small, poorly fitted or top-dose-only effect; inactive means flat fitted curve, though single readings scatter.
readout_kind: Potency

Solved cases below.
[[record]]
compound = "COc1cc(NCCCC(C)N)c2ncccc2c1 (stereo not given)"
measurement = "4.78 µM (active)"

[[record]]
compound = "NCC[C@H](O)C(=O)N[C@@H]1C[C@H](N)[C@@H](O[C@H]2O[C@H](CN)[C@@H](O)[C@H](O)[C@H]2O)[C@H](O)[C@H]1O[C@H]1O[C@H](CO)[C@@H](O)[C@H](N)[C@H]1O"
measurement = "inactive"

[[record]]
compound = "OC[C@H]1O[C@@](CO)(O[C@H]2O[C@H](CO)[C@@H](O)[C@H](O)[C@H]2O)[C@@H](O)[C@@H]1O"
measurement = "inactive"

[[record]]
compound = "Cc1ncc(C[n+]2csc(CCOP(=O)(O)OP(=O)(O)O)c2C)c(N)n1"
measurement = "inactive"


Lab note: next compound to report on.
Sure, the documented Potency for `O=P(O)(O)OC[C@H](O)CO` is inactive
